Tested on: HeLa Kyoto;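 note: synchronized HeLa Kyoto cells (double thymidine block for G1/S, nocodazole release for mitosis), protein amounts in NP-40 versus SDS lysates quantified by mass spectrometry, three biological replicates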
assay_procedure: solubility change mitosis vs G1/S (difference of NP-40 vs SDS log2 ratios) (log2 ratio difference); higher = more soluble in mitosis
readout_kind: solubility change mitosis (log2)
Please give the numeric answer without any surrounding text.

For orientation, consider the following solved cases.
# record_sequence, measurement_target, endpoint_result
rows = [
    ("MTDYGEEQRNELEALESIYPDSFTVLSENPPSFTITVTSEAGENDETVQTTLKFTYSEKYPDEAPLYEIFSQENLEDNDVSDILKLLALQAEENLGMVMIFTLVTAVQEKLNEIVDQIKTRREEEKKQKEKEAEEAEKQLFHGTPVTIENFLNWKAKFDAELLEIKKKRMKEEEQAGKNKLSGKQLFETDHNLDTSDIQFLEDAGNNVEVDESLFQEMDDLELEDDEDDPDYNPADPESDSAD [RWDD1]", "HeLa Kyoto", 0.0192),
    ("METVISSDSSPAVENEHPQETPESNNSVYTSFMKSHRCYDLIPTSSKLVVFDTSLQVKKAFFALVTNGVRAAPLWDSKKQSFVGMLTITDFINILHRYYKSALVQIYELEEHKIETWREVYLQDSFKPLVCISPNASLFDAVSSLIRNKIHRLPVIDPESGNTLYILTHKRILKFLKLFITEFPKPEFMSKSLEELQIGTYANIAMVRTTTPVYVALGIFVQHRVSALPVVDEKGRVVDIYSKFDVINLAAEKTYNNLDVSVTKALQHRSHYFEGVLKCYLHETLETIINRLVEAEVHRLVVVDENDVVKGIVSLSDILQALVLTGGEKKP [PRKAG1]", "HeLa Kyoto", -0.127),
]

We next turn to a different sequence, shown below.
Incoming: Specify reported solubility change mitosis (log2) for the sequence shown: MASSSGSKAEFIVGGKYKLVRKIGSGSFGDIYLAINITNGEEVAVKLESQKARHPQLLYESKLYKILQGGVGIPHIRWYGQEKDYNVLVMDLLGPSLEDLFNFCSRRFTMKTVLMLADQMISRIEYVHTKNFIHRDIKPDNFLMGIGRHCNKLFLIDFGLAKKYRDNRTRQHIPYREDKNLTGTARYASINAHLGIEQSRRDDMESLGYVLMYFNRTSLPWQGLKAATKKQKYEKISEKKMSTPVEVLCKGFPAEFAMYLNYCRGLRFEEAPDYMYLRQLFRILFRTLNHQYDYTFDWTMLKQKAAQQAASSSGQGQQAQTPTGKQTDKTKSNMKGF [CSNK1A1]
Outgoing: -0.0146
